Measured property: melting point

structure_smiles_string=CN1CC=C(C2=Cc3ccccc3Oc3ccc(Br)cc32)CC1 reported_result="144 to 146 °C"
structure_smiles_string=COCCNc1ccc(C(=O)c2c(C)n(CCN3CCOCC3)c3ccccc23)cc1 reported_result="121 to 123 °C"
structure_smiles_string=CCCONNc1nc(C(=O)c2ccccc2O)nc(C(=O)c2ccccc2O)n1 reported_result="258 to 260 °C"

State the recorded melting point for this entry: COC(=O)c1c(C(=O)OC)c(-c2cc(OC)c(OC)c(OC)c2)c2c(OC)c(OC)c(OC)cc2c1O 165 to 167 °C

Would you kindly repeat that for Cc1ccc(C(=CC=O)c2ccc(C)cc2)cc1 ? 92 to 93.5 °C
